These entries and their values trace back to ChEMBL document CHEMBL3804813.

PROTOCOL: Antiproliferative activity against human HCT116 cells expressing wild type p53 assessed as growth inhibition after 72 hrs by MTT assay
Type: functional, cell-based
MEASUREMENT CONTEXT: HCT-116, 72 h
ASSAY READOUT: IC50 (µM)
The reply should contain only the number, in µM.

Return value of IC50 for input CCOC(=O)c1oc2ccc(NS(=O)(=O)c3ccc(F)cc3)cc2c1C , no commentary.
10.5

Return value of IC50 for input CCOC(=O)c1oc2ccc(N(C(C)C)S(=O)(=O)c3ccc(Cl)cc3)cc2c1C , no commentary.
7.83

Return value of IC50 for input Cc1c(C(=O)O)oc2ccc(N(Cc3ccc(Br)cc3)S(=O)(=O)c3ccc(Br)cc3)cc12 , no commentary.
8.58

Return value of IC50 for input Cc1c(C(=O)O)oc2ccc(N(Cc3ccccc3)S(=O)(=O)c3ccc(Cl)cc3)cc12 , no commentary.
9.13

Return value of IC50 for input CCOC(=O)c1oc2ccc(NS(=O)(=O)c3ccc(C(F)(F)F)cc3)cc2c1C , no commentary.
5.03

Return value of IC50 for input CCOC(=O)c1oc2ccc(N(Cc3ccccc3)S(=O)(=O)c3ccc(Br)cc3)cc2c1C , no commentary.
9.46

Return value of IC50 for input Cc1c(C(=O)O)oc2ccc(N(Cc3ccc(Cl)cc3)S(=O)(=O)c3ccc(Cl)cc3)cc12 , no commentary.
3.67

Return value of IC50 for input COc1ccc(N(Cc2ccccc2)S(=O)(=O)c2ccc(Cl)cc2)cc1 , no commentary.
18.3

Return value of IC50 for input Cc1c(C(=O)NCCN(C)C)oc2ccc(N(Cc3ccc(Cl)cc3)S(=O)(=O)c3ccc(Cl)cc3)cc12 , no commentary.
5.38

Return value of IC50 for input CCOC(=O)c1oc2ccc(N(CC3CCCCC3)S(=O)(=O)c3ccc(Cl)cc3)cc2c1C , no commentary.
14.1

Return value of IC50 for input CCOC(=O)c1oc2ccc(N(Cc3ccc(Cl)cc3)S(=O)(=O)c3ccc(Cl)cc3)cc2c1C , no commentary.
9.48
